Target: XIAP IRES
Assay: Fluorescent titration binding assay
Details: read-out: binding Kd to XIAP IRES
recorded-endpoint: Kd

Give a short answer stating reported Kd for O=C1c2c(O)ccc(O)c2C(=O)c2c(NCCNCCO)ccc(NCCNCCO)c21 [MX3, mitoxantrone, reference compound] .
5.26 µM
